Assay: Oral bioavailability in rat at 15 mg/kg, po
Assay type: ADME, organism-based
Conditions: in vivo
metric: bioavailability (%)
Report the value in % with no unit label.

[[record]]
molecule = "CCC(=O)N1CCN(C(=O)c2cc(Cc3n[nH]c(=O)c4ccccc34)ccc2F)CC1"
metric = "bioavailability"
value_unit = "%"
test_result = 40


*Q* Query (compound): O=C(c1cc(Cc2n[nH]c(=O)c3ccccc23)ccc1F)N1CCN(C(=O)C2CC2)CC1 ; field requested: bioavailability
*A* 100
